- Tested on: HCC-2998 colon
- protocol: NCI tumour cell line growth inhibition, 48 h
Measured GI50 by item
readout: GI50

{"molecule": "COc1ccc(-c2ccc(-c3ccc(C(=N)N)nc3)s2)cc1", "measured_result": "1820 nM"}
{"molecule": "CCC[CH2][Sn]([CH2]CCC)([O]C(C)=O)[O]C(C)=O", "measured_result": "1530 nM"}
{"molecule": "C=C1C(=O)O[C@@H]2C1CC(=O)C(C)CC/C=C(\\C)CCC[C@H](C)[C@H]2OC(C)=O (stereo partly drawn)", "measured_result": "15600 nM"}

----------
- System: ACHN renal
- protocol: NCI tumour cell line growth inhibition, 48 h
Measured TGI by item
readout: TGI (µM)

{"compound": "CCc1c(C)[nH]c(/C=C2\\N=C(c3ccc[nH]3)C=C2OC)c1C", "assayed_target": "ACHN renal", "readout": "TGI", "value_relation_sign": "=", "measured_result": 2.19}
{"compound": "NCC1(N2CCOCC2)C2CCCC21CO (stereo not given)", "assayed_target": "ACHN renal", "readout": "TGI", "value_relation_sign": ">", "measured_result": 100}
{"compound": "CC#COP(=O)(OCC)OCC", "assayed_target": "ACHN renal", "readout": "TGI", "value_relation_sign": ">", "measured_result": 100}
{"compound": "O=C(O)c1c[nH]c2c(Sc3ccccc3)nccc2c1=O", "assayed_target": "ACHN renal", "readout": "TGI", "value_relation_sign": ">", "measured_result": 100}
{"compound": "CCN=C1C=CC(=C(c2ccc(N(C)C)cc2)c2ccc(N(C)C)cc2)c2ccccc21", "assayed_target": "ACHN renal", "readout": "TGI", "value_relation_sign": "=", "measured_result": 1.1}

Cited source: PubChem BioAssay (NCI)
